Target: Mitogen-activated protein kinase kinase kinase 14 (Homo sapiens)
Sequence (Q99558 whole entry): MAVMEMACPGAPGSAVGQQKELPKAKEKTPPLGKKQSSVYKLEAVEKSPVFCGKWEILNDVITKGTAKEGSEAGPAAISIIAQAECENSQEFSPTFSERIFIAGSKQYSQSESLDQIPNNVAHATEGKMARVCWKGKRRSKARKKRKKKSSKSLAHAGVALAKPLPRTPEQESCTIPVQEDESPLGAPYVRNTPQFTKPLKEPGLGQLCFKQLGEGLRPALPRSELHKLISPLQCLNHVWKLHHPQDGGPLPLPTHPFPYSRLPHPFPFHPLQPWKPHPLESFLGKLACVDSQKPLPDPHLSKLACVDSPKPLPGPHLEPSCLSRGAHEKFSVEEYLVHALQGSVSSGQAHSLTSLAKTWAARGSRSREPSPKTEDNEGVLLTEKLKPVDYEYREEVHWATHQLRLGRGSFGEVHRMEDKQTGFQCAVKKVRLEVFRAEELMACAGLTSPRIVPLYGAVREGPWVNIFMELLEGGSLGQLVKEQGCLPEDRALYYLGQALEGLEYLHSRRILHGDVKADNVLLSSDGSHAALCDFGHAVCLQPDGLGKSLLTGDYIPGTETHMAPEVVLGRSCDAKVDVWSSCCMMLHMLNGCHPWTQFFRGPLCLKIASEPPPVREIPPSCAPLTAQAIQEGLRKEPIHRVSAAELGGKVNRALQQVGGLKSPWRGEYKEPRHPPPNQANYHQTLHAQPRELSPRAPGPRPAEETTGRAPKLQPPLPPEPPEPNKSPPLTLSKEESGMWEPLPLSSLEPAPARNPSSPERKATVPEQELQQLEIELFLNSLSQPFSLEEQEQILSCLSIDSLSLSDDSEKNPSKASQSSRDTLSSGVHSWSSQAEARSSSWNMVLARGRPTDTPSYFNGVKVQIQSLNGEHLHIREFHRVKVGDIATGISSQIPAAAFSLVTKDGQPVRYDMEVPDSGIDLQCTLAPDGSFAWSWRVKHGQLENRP
Assay: Inhibition of auto-phosphorylation of recombinant human NF-kappaB-inducing kinase (NIK/MAP3K14) activity (AlphaScreen)
endpoint-name: pIC50
Lab note — pIC50 values are minus log10 of concentrations in M.

Request: Bench note: what pIC50 did Cc1cc(C#C[C@]2(O)CCN(C)C2=O)cc(-c2nc3c(N)ncnc3s2)c1 show?
Result: 9.10
